Answer each item with its documented EC50.
Assayed target: human CD3 (on the human T-cell line Jurkat or on human T-cells) (human, UniProt P09693 23-182; P20963 22-164)
Sequence (chain, as listed by the source, chain 1 of 4): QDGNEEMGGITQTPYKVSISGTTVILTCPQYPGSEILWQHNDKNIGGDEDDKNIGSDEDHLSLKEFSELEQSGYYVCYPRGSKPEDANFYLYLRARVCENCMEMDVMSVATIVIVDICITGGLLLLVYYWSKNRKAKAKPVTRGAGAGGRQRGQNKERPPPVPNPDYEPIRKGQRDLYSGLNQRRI
Sequence (chain, as listed by the source, chain 2 of 4): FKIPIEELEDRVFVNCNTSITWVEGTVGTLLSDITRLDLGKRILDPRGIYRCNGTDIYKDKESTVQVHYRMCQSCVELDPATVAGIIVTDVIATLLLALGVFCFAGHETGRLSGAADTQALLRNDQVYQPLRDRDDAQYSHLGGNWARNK
Sequence (P09693 23-182, chain 3 of 4): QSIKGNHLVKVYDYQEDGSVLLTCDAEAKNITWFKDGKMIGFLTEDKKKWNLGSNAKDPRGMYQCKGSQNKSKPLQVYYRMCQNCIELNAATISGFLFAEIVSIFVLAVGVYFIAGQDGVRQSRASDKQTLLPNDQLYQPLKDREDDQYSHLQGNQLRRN
Sequence (P20963 22-164, chain 4 of 4): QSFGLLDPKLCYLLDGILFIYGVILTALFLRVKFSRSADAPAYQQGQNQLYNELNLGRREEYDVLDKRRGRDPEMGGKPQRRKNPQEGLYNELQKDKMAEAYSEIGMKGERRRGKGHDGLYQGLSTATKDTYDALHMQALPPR
Test details: FACS binding; Fig 1A
Enter the number, and then the unit.

IN: Entry IgG1-huCD3-H3L3 (antibody, V domains shown) VH: EVKLVESGGGLVKPGRSLRLSCAASGFTFNTYAMNWVRQAPGKGLEWVARIRSKYNNYATYYADSVKDRFTISRDDSKSILYLQMNSLKTEDTAMYYCVRHGNFGNSYVSWFAYWGQGTLVTVSS VL: QAVVTQEPSFSVSPGGTVTLTCRSSTGAVTTSNYANWVQQTPGQAFRGLIGGTNKRAPGVPARFSGSILGNKAALTITGAQADDESDYYCALWYSNLWVFGGGTKLTVL needs its EC50 filled in; supply it.
OUT: 0.02 µg/mL

IN: Entry IgG1-huCD3-H1L3 (antibody, V domains shown) VH: EVKLVESGGGLVQPGGSLRLSCAASGFTFNTYAMNWVRQAPGKGLEWVARIRSKYNNYATYYADSVKDRFTISRDDSKSSLYLQMNNLKTEDTAMYYCVRHGNFGNSYVSWFAYWGQGTLVTVSS VL: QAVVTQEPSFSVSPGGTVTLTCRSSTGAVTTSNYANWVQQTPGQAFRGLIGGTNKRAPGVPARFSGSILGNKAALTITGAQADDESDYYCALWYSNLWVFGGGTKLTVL needs its EC50 filled in; supply it.
OUT: 0.06 µg/mL

IN: Entry IgG1-huCD3-H1L2 (antibody, V domains shown) VH: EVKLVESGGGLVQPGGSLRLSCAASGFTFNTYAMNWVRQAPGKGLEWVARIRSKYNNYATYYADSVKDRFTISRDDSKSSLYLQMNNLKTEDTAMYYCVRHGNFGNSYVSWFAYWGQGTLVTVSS VL: QAVVTQEPSFSVSPGGTVTLTCRSSTGAVTTSNYANWVQQTPGQAFRGLIGGTNKRAPGVPARFSGSILGNKAALTITGAQADDESIYFCALWYSNLWVFGGGTKLTVL needs its EC50 filled in; supply it.
OUT: 0.08 µg/mL

These data points were gathered from patent US20160168247A1.
